Cited source for all entries: patent US20070219159A1

- Test Description: Aqueous solubility
- Assay type: physicochemical
- Condition Details: water; read-out: concentrations at which insoluble in water
Endpoint Label: solubility

Query OC[C@H]1O[C@@H]2O[C@H]3[C@H](O)[C@@H](O)[C@@H](O[C@H]4[C@H](O)[C@@H](O)[C@@H](O[C@H]5[C@H](O)[C@@H](O)[C@@H](O[C@H]6[C@H](O)[C@@H](O)[C@@H](O[C@H]7[C@H](O)[C@@H](O)[C@@H](O[C@H]8[C@H](O)[C@@H](O)[C@@H](O[C@H]1[C@H](O)[C@H]2O)O[C@@H]8CO)O[C@@H]7CO)O[C@@H]6CO)O[C@@H]5CO)O[C@@H]4CO)O[C@@H]3CO [BCD, β-cyclodextrin] yields solubility of > 10000 µg/mL
